- Tested on: DYRK1B
- MEASUREMENT SETUP: concentration: 1 μM, replicates: in singlicate; n = 1;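 also: KINOMEscan kinase panel screen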
REPORTED PROPERTY: %Inh (%)
Numbers only, in %.

# COMPOUND, UOM, %Inh
measured = [
    ("NS(=O)(=O)c1cccc(-c2ccc3ncc(N4CCOCC4)nc3c2)c1", "%", 4),
    ("CNc1ncnc2[nH]ncc12", "%", 0),
]

List the reported %Inh of each compound below.
1. COc1ccc(CNC(=O)NC2CCN(c3ccnc(Nc4ccc(OC)cc4)n3)C2)cc1 (stereo not shown)
2. O=c1cc(N2CCOCC2)nc2n(Cc3cccc(C(F)(F)F)c3)ccn12

Solution:
1. 0
2. 0

###

Please go through the items and note down their %Inh.
- Tested on: ANKK1
- MEASUREMENT SETUP: concentration: 1 μM, replicates: in singlicate; n = 1
For clarity, give the value followed by its unit.

Worked examples follow.
# COMPOUND, %Inh
records = [
    ("O=c1cc(N2CCOCC2)nc2n(Cc3cccc(C(F)(F)F)c3)ccn12", "5%"),
    ("Nc1nccc(-c2c(-c3ccc(F)cc3)ncn2C2CCN(CC(F)(F)F)CC2)n1", "0%"),
    ("Cc1ccc(NC(=O)c2ccnc(N3CCN(C)CC3)c2)cc1-c1ccc(C(=O)NCC2CC2)cc1", "0%"),
    ("NS(=O)(=O)c1cccc(-c2ccc3ncc(N4CCOCC4)nc3c2)c1", "15%"),
    ("COc1cc(Nc2nccc(N3CCC(NC(=O)c4cccc(NC(C)=O)c4)C3)n2)cc(OC)c1OC (centres unmarked)", "34%"),
    ("CCc1nc(-c2cccc(C)c2)c(-c2ccnc(NCc3ccccc3)c2)s1", "0%"),
    ("c1ccc(-c2cc(-c3c[nH]nc3-c3ccccn3)ccn2)cc1", "0%"),
    ("COc1ccc(Nc2ncc(C#N)c(Nc3ccccc3C(N)=O)n2)cc1N1CCN(C)CC1.Cl", "52%"),
]

List the reported %Inh of each compound below.
1. Cc1nnc(-c2ccc3ncc(-c4ccc(S(C)=O)cc4)n3c2)o1 (centres unmarked)
2. Cc1cn2c(=O)cc(N3CCOCC3)nc2n1Cc1cccc(Cl)c1Cl
3. CN1c2ccc(CNc3ccc(F)cc3)cc2-c2c(cnn2C)S1(=O)=O
4. COc1ccc(COc2cc(-n3cnc4ccccc43)sc2C(N)=O)cc1

Solution:
["0%", "0%", "0%", "8%"]

List the reported %Inh of each compound below.
1. COc1ccc(CNC(=O)NC2CCN(c3ccnc(Nc4ccc(OC)cc4)n3)C2)cc1 (centres unmarked)
2. Fc1ccc(-c2ncn(CCCN3CCOCC3)c2-c2cccnc2)cc1
3. COc1cc2c(cc1OCCN1CCN(C)CC1)ncc1c3ccc(C#N)cc3[nH]c21
4. Cc1nnc(-c2ccc(C)c(-c3ccc(C(=O)Nc4ccc(NS(C)(=O)=O)cc4)cc3)c2)o1
5. O=C(NOCC1CC1)c1ccc(F)c(F)c1Nc1ccc(I)cc1Cl

Solution:
0%
0%
54%
14%
0%

###

- Test system: CASK
- MEASUREMENT SETUP: concentration: 1 μM, replicates: in singlicate; n = 1
Please go through the items and note down their %Inh.
Numbers only, in %.

# COMPOUND, ENDPOINT RESULT
records = [
    ("Cl.Nc1ncnc2occ(-c3ccc(NC(=O)Nc4cc(C(F)(F)F)ccc4F)cc3)c12", 5),
    ("NCC(NC(=O)c1cc(-c2cn[nH]c2)c(-c2ccnc3[nH]ccc23)s1)c1ccccc1.O=C(O)C(F)(F)F.O=C(O)C(F)(F)F (stereo not shown)", 23),
    ("c1ccc(-c2cc(-c3c[nH]nc3-c3ccccn3)ccn2)cc1", 0),
    ("COc1ccc(COc2cc(-n3cnc4ccccc43)sc2C(N)=O)cc1", 0),
    ("COc1ccc(S(=O)(=O)NC2CCN(c3cc(C)nc(Nc4cccc(C#N)c4)n3)CC2)cc1.O=C(O)C(F)(F)F", 0),
    ("Cc1nnc(-c2ccc3ncc(-c4ccc(S(C)=O)cc4)n3c2)o1 (stereo not shown)", 0),
]

List the reported %Inh of each compound below.
1. Cc1nnc(-c2ccc(C)c(-c3ccc(C(=O)Nc4ccc(NS(C)(=O)=O)cc4)cc3)c2)o1
2. O=C(NOCC1CC1)c1ccc(F)c(F)c1Nc1ccc(I)cc1Cl

Solution:
[23, 3]

List the reported %Inh of each compound below.
1. Cn1cc(-c2ccc3c(c2)CCN3C(=O)Cc2ccccc2Cl)c2c(N)ncnc21
2. O=C(c1ccc(-c2cc(-c3c[nH]nc3-c3ccccn3)ccn2)cc1)N1CCOCC1
3. CC(C)(C)n1cnc2c(N)ncnc21
4. CCc1ccnc(/C=C/c2n[nH]c3cc(Sc4ccccc4C(=O)NC)ccc23)c1
5. COC(=O)Nc1nc2cc(Oc3ccc(NC(=O)Nc4cc(F)ccc4F)cc3)ccc2[nH]1.Cl
6. CN(C(=O)c1ccc(-c2cc(-c3c[nH]nc3-c3ccccn3)ccn2)cc1)C1CCOCC1
7. CNc1ncnc2[nH]ncc12
8. Cn1ccc2ncnc(Oc3ccc(NC(=O)Nc4ccncc4)c(Cl)c3)c21

Solution:
1. 0
2. 4
3. 0
4. 34
5. 0
6. 0
7. 22
8. 0

List the reported %Inh of each compound below.
1. Cc1c2ccc(N(C)c3ccnc(Nc4cccc(S(N)(=O)=O)c4)n3)cc2nn1Cc1ccccc1.Cl.Cl
2. Fc1ccc(-c2ncn(CCCN3CCOCC3)c2-c2ccccn2)cc1
3. CN1c2ccc(CNc3ccc(F)cc3)cc2-c2c(cnn2C)S1(=O)=O
4. COc1cc(Nc2nccc(N3CCC(NC(=O)c4cccc(NC(C)=O)c4)C3)n2)cc(OC)c1OC (stereo not shown)
5. Fc1ccc(-c2ncn(CCCN3CCOCC3)c2-c2cccnc2)cc1
6. Cc1cccc(Cn2ccn3c(=O)cc(N4CCOCC4)nc23)c1
7. CN(C1=C(c2ccccc2)C(=O)NC1=O)c1ccccc1

Solution:
1. 9
2. 0
3. 22
4. 1
5. 6
6. 20
7. 17

List the reported %Inh of each compound below.
1. Cc1ccc(C(=O)NCC(N)=O)cc1-n1c(C)cc(OCc2ccc(F)cc2F)c(Br)c1=O
2. Fc1ccc(-c2nn3c(OCC(F)(F)F)cccc3c2-c2ccncc2)cc1

Solution:
1: 0; 2: 7
